Target: hERα (Saccharomyces cerevisiae BLYES strain) (Homo sapiens)
Construct: expressed in transfected cells; host or cells: Saccharomyces cerevisiae BLYES strain (hERα gene integrated in the chromosome)
Assay: cell-based
Assay type: cell-based
Conditions: BLYES, + 6.28 × 10^−2 µM ZEN; lower estrogenic concentration of the compound (as E21)
measure: Combined Estrogenic Effect (grade symbol)

1. C[C@H]1CCCC(=O)CCCCCc2cc(O)cc(O)c2C(=O)O1 : ++ (CI < 0.60: ++)
2. C[C@H]1CCC[C@H](O)CCCCCc2cc(O)cc(O)c2C(=O)O1 : ± (0.80 < CI < 1.20: ±)
3. C[C@H]1CCC[C@H](O)CCC/C=C/c2cc(O)cc(O)c2C(=O)O1 : ++ (CI < 0.60: ++)
4. C[C@H]1CCC[C@@H](O)CCCCCc2cc(O)cc(O)c2C(=O)O1 : ± (0.80 < CI < 1.20: ±)

* * *

Assay: in vitro
Conditions: human, Decrease in cellular ATP levels (% of control), individual effect, HeLa, 24 h, single compound at 30 μM
measure: cytotoxicity at 24 h, 30 µM (%)

1. Cc1cc(O)cc2oc(=O)c3c(O)cc(O)cc3c12 : 32.4

* * *

System: HeLa cells
Assay: in vitro
Settings: HeLa, 24 h, 10 µM of the compound + 20 µM ZEN, CompuSyn
Each item that follows carries a reported CI Value (combination index).
measure: CI Value (combination index)

1) C[C@H]1CCC[C@@H](O)CCC/C=C/c2cc(O)cc(O)c2C(=O)O1 [β-ZEL, β-zearalenol] : 0.64
2) C[C@H]1CCC[C@H](O)CCC/C=C/c2cc(O)cc(O)c2C(=O)O1 [α-ZEL, α-zearalenol] : 0.57
3) Cc1cc(O)cc2oc(=O)c3c(O)cc(O)cc3c12 [AOH, alternariol] : 0.73
4) C[C@H]1CCCC(=O)CCCCCc2cc(O)cc(O)c2C(=O)O1 [ZAN, zearalanone] : 0.55

* * *

Molecular target: hERα (Saccharomyces cerevisiae BLYES strain) (Homo sapiens, UniProt P03372)
Construct: expressed in transfected cells; host or cells: Saccharomyces cerevisiae BLYES strain (hERα gene integrated in the chromosome)
Sequence (P03372 whole entry): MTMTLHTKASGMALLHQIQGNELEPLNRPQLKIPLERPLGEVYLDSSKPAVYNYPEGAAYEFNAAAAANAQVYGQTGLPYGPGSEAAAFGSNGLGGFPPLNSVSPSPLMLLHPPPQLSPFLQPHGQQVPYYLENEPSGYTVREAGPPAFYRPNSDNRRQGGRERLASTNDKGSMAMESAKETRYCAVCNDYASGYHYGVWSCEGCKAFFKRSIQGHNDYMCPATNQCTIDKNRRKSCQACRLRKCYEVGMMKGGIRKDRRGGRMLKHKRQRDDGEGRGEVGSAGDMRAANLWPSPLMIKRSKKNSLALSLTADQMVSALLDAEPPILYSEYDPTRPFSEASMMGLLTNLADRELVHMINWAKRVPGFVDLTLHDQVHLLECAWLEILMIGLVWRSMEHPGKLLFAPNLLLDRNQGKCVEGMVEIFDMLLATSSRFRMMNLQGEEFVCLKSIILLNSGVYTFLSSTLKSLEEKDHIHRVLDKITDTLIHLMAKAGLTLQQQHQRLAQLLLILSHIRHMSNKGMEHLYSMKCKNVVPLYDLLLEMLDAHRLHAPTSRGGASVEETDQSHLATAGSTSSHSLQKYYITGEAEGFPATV
Assay: cell-based
Type: cell-based
Details: BLYES, + 62.8 ×10^-3 μM ZEN; higher estrogenic concentration of the compound (as E20)
measure: Combined estrogenic effect in Figure 5B

1) C[C@H]1CCC[C@H](O)CCC/C=C/c2cc(O)cc(O)c2C(=O)O1 [α-ZEL, α-zearalenol] : synergism
2) C[C@H]1CCCC(=O)CCCCCc2cc(O)cc(O)c2C(=O)O1 [ZAN, zearalanone] : synergism

* * *

Target: hERα (Saccharomyces cerevisiae BLYES strain) (Homo sapiens)
Construct: expressed in transfected cells; host or cells: Saccharomyces cerevisiae BLYES strain (hERα gene integrated in the chromosome)
Assay: cell-based
Format: cell-based
Details: BLYES, + 6.28 × 10^−2 µM ZEN; lower concentration (µM): α-ZEL 6.24 × 10^−3, β-ZEL 1.22, ZAN 2.50 × 10^−2, α-ZAL 1.24 × 10^−2, β-ZAL 1.24 × 10^−1, GEN 7.4 × 10^−1
Each item that follows carries a reported CI Value (combination index).
measure: CI Value (combination index)

1) C[C@H]1CCC[C@H](O)CCC/C=C/c2cc(O)cc(O)c2C(=O)O1 : 0.37
2) C[C@H]1CCC[C@H](O)CCCCCc2cc(O)cc(O)c2C(=O)O1 : 0.97
3) C[C@H]1CCCC(=O)CCCCCc2cc(O)cc(O)c2C(=O)O1 : 0.58
4) C[C@H]1CCC[C@@H](O)CCC/C=C/c2cc(O)cc(O)c2C(=O)O1 : 0.77
5) C[C@H]1CCC[C@@H](O)CCCCCc2cc(O)cc(O)c2C(=O)O1 : 1.19
